Reference source for all entries: patent US11780845B2

- target system: FGFR2 (Homo sapiens (Human))
- assay method text: FGFR2 Biochemical Caliper Assay
pIC50: −log10 of the molar value.
parameter: pIC50

Look up pIC50: C=C(C)C(=O)Nc1ccc(-c2c(-c3ccc(Oc4ccc(F)cn4)c(O)c3)c3c(N)ncnc3n2C)cc1
4.00 to 6.00

Look up pIC50: C=C(C)C(=O)Nc1ccc(-c2c(-c3ccc(=O)n(C4CC4)c3)c3c(N)ncnc3n2C)cc1
4.00 to 6.00

Look up pIC50: C=C(C)C(=O)Nc1ccc(-c2c(-c3ccc(Oc4nccc(C)n4)c(N(C)C)c3)c3c(N)ncnc3n2C)cc1
4.00 to 6.00

Look up pIC50: C=C(C)C(=O)N1CCC(n2cc(-c3c(-c4ccc(Oc5cccc(C)n5)cc4)c4c(N)ncnc4n3C)cn2)CC1
6.00 to 6.60

Look up pIC50: C=Cc1ncc2cc(-c3c(-c4ccc(C(=O)N5CCCC5)cc4)c4c(N)ncnc4n3C)ccc2n1
4.00 to 6.00

Look up pIC50: C=C(C)C(=O)Nc1ccc(-c2c(-c3ccc(C(=O)N4CC5CC4C5)cc3F)c3c(N)ncnc3n2C)cc1
6.60 to 7.00

Look up pIC50: C=CC(=O)N1CCC(n2cc(-c3c(-c4c(Cl)ccc5c4OCO5)c4c(N)ncnc4n3C)cn2)CC1
4.00 to 6.00

Look up pIC50: C=C(C)C(=O)Nc1ccc(-c2c(C3=CCC(C(=O)N4CCCC[C@@H]4C)CC3)c3c(N)ncnc3n2C)cc1 (some centres unmarked)
6.60 to 7.00

Look up pIC50: C=CC(=O)N1CCC(n2cc(-c3c(-c4ccc(Oc5ccccn5)c(OC)c4)c4c(N)ncnc4n3C)cn2)CC1C (centres unmarked)
6.60 to 7.00

Look up pIC50: C=C(C)C(=O)Nc1ccc(-c2c(-c3ccc(C(=O)N4CCCC4)cc3)c3c(N)ncnc3n2C)c(C(F)F)c1
> 7.00

Look up pIC50: C=C(C)C(=O)Nc1c(F)cc(-c2c(-c3ccc(C(=O)N4CCCC4)cc3)c3c(N)ncnc3n2C)cc1F
4.00 to 6.00

###

Assignment: determine reported IC50 for the given compounds.
- target system: FGFR2 (Homo sapiens (Human), UniProt P21802)
- Sequence (P21802 22-821): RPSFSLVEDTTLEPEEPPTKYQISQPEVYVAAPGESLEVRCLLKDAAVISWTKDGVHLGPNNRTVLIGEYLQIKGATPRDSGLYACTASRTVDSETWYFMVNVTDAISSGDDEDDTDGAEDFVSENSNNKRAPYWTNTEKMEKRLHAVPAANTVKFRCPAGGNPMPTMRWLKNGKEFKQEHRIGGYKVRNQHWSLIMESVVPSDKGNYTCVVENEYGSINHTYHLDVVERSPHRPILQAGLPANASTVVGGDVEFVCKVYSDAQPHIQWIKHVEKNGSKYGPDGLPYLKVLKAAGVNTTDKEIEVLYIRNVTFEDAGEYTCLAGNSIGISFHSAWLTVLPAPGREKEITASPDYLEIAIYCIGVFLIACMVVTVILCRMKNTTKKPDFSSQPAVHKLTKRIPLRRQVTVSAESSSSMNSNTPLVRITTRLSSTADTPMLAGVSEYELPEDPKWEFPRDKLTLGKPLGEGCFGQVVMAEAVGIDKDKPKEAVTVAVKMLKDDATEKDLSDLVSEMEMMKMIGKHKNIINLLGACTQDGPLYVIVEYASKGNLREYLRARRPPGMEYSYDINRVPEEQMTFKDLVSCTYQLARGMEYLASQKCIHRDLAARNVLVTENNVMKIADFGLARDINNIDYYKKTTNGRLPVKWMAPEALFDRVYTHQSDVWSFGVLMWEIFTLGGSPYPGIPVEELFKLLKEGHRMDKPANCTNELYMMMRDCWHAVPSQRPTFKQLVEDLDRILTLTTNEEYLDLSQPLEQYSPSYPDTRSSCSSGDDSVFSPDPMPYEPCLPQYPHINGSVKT
- assay method text: FGFR2 Biochemical Caliper Assay

Look up IC50: C=C(C)C(=O)Nc1ccc(-c2c(-c3ccc(C(=O)N4CCC5CC54)cc3)c3c(N)ncnc3n2C)c(F)c1 (stereo not drawn)
< 100 nM

Look up IC50: C=C(C)C(=O)Nc1ccc(-c2c(-c3ccc(C(=O)NC4CCNC4)cc3)c3c(N)ncnc3n2C)cc1 (stereo not drawn)
< 100 nM

Look up IC50: C=CC(=O)Nc1ccc(-c2c(-c3ccc(C(=O)N4CCCC4)c(OC)c3)c3c(N)ncnc3n2C)cc1
< 100 nM

Look up IC50: C=C(C)C(=O)Nc1ccc(-c2c(-c3ccc(C(=O)NCC4CNC4)cc3)c3c(N)ncnc3n2C)cc1
250 to 1000 nM

Look up IC50: C=C(C)C(=O)Nc1ccc(-c2c(-c3ccc(C(=O)N4CCC[C@H]4C#N)c(F)c3)c3c(N)ncnc3n2C)cc1
< 100 nM

Look up IC50: C=C(C)C(=O)Nc1ccc(-c2c(-c3ccc(C(=O)N4CCC(O)C4)cc3)c3c(N)ncnc3n2C)cc1 (stereo not drawn)
250 to 1000 nM

Look up IC50: C=C(C)C(=O)Nc1ccc(-c2c(-c3ccc(Oc4cccc(C)n4)cc3)c3c(N)ncnc3n2C2CCOCC2)cc1
100 to 250 nM

Look up IC50: C=Cc1ccc(-c2c(-c3ccc(Oc4nccc(C)n4)cc3)c3c(N)ncnc3n2C)cn1
100 to 250 nM

Look up IC50: C=C(C)C(=O)Nc1ccc(-c2c(-c3ccc(Oc4ncc(F)cn4)nc3)c3c(N)ncnc3n2C)cc1
1000 to 100000 nM

Look up IC50: C=C(C)C(=O)Nc1ccc(-c2c(-c3ccc(Oc4cccc(N)n4)cc3)c3c(N)ncnc3n2C)cc1
< 100 nM

Look up IC50: C=C(C)C(=O)Nc1ccc(-c2c(-c3ccc(C(=O)N4CC5CCCC5C4)cc3)c3c(N)ncnc3n2C)cc1 (stereo not drawn)
100 to 250 nM

Look up IC50: C=C(C)C(=O)Nc1ccc(-c2c(-c3ccc(C(=O)N[C@@H](COC)C4CC4)cc3)c3c(N)ncnc3n2C)cc1
< 100 nM

Look up IC50: C=C(C)C(=O)Nc1ccc(-c2c(-c3ccc4c(c3)CCCN4C)c3c(N)ncnc3n2C)cc1
250 to 1000 nM

Look up IC50: Cn1c(-c2ccc(N3CC=CC3=O)cc2)c(-c2ccc(C(=O)N3CCCC3)cc2)c2c(N)ncnc21
1000 to 100000 nM

Look up IC50: C=C(C)C(=O)Nc1ccc(-c2c(-c3cc(O)c(Oc4ccccn4)c(Cl)c3)c3c(N)ncnc3n2C)cc1
250 to 1000 nM

###

Assignment: determine reported IC50 for the given molecules.
- target system: FGFR2 (Homo sapiens (Human), UniProt P21802)
- assay method text: FGFR2 Biochemical Caliper Assay

# value lookup — system FGFR2 (Homo sapiens (Human), UniProt P21802), readout IC50, item C=C(C)C(=O)Nc1ccc(-c2c(-c3ccc(Oc4cccc(C)n4)cc3)c3c(N)ncnc3n2C2COC2)cc1
< 100 nM

# value lookup — system FGFR2 (Homo sapiens (Human), UniProt P21802), readout IC50, item C=C(C)C(=O)Nc1ccc(-c2c(-c3ccc(C(=O)NCC4CC4)cc3)c3c(N)ncnc3n2C)cc1
< 100 nM

# value lookup — system FGFR2 (Homo sapiens (Human), UniProt P21802), readout IC50, item C=C(C)C(=O)Nc1ccc(-c2c(-c3ccc(Oc4nccc(C(F)F)n4)cc3)c3c(N)ncnc3n2C)cc1
< 100 nM

# value lookup — system FGFR2 (Homo sapiens (Human), UniProt P21802), readout IC50, item C=C(C)C(=O)Nc1ccc(-c2c(-c3ccc(Oc4ncc(Cl)cn4)c(F)c3)c3c(N)ncnc3n2C)cc1
250 to 1000 nM

# value lookup — system FGFR2 (Homo sapiens (Human), UniProt P21802), readout IC50, item C=C(C)C(=O)Nc1ccc(-c2c(-c3ccc(C(=O)N4CCCC5(CC5)C4)cc3)c3c(N)ncnc3n2C)cc1
100 to 250 nM

# value lookup — system FGFR2 (Homo sapiens (Human), UniProt P21802), readout IC50, item C=CC(=O)N1CCC(c2c(C3=CCN(C(C)=O)CC3(C)C)c3c(N)ncnc3n2C)C1 (stereo not drawn)
100 to 250 nM

# value lookup — system FGFR2 (Homo sapiens (Human), UniProt P21802), readout IC50, item Cc1cccc(Oc2ccc(-c3c(-c4cnc(C#N)nc4)n(C)c4ncnc(N)c34)cc2)n1
< 100 nM

# value lookup — system FGFR2 (Homo sapiens (Human), UniProt P21802), readout IC50, item C=C(C)C(=O)Nc1ccc(-c2c(-c3ccc4sc(C(=O)N(C)C)cc4c3)c3c(N)ncnc3n2C)cc1
250 to 1000 nM

# value lookup — system FGFR2 (Homo sapiens (Human), UniProt P21802), readout IC50, item C=C(C)C(=O)Nc1ccc(-c2c(-c3ccc(Oc4cccc(F)c4)nc3)c3c(N)ncnc3n2C)cc1
1000 to 100000 nM

###

- target system: FGFR2 (Homo sapiens (Human), UniProt P21802)
- assay method text: FGFR2 Biochemical Caliper Assay
pIC50: −log10 of the molar value.
Assignment: determine reported pIC50 for the given compounds.

Look up pIC50: C=C(C)C(=O)Nc1ccc(-c2c(-c3ccc(C(=O)N4CC5CC4C5)cc3)c3c(N)ncnc3n2C)c(F)c1
> 7.00

Look up pIC50: C=C(C)C(=O)Nc1ccc(-c2c(-c3ccc(C(=O)NC4CCCC4O)cc3)c3c(N)ncnc3n2C)cc1 (stereo not drawn)
> 7.00

Look up pIC50: C=C(C)C(=O)Nc1ccc(-c2c(-c3ccc(Cn4cc(C)cn4)c(F)c3)c3c(N)ncnc3n2C)cc1
4.00 to 6.00

Look up pIC50: C=CC(=O)N1CCC(c2c(-c3ccc(Oc4ncccn4)c(OC)c3)c3c(N)ncnc3n2C)C1 (stereo not drawn)
4.00 to 6.00

Look up pIC50: C=CC(=O)N1CCC(c2c(-c3cnn(CC4CCN(C(C)=O)CC4)c3)c3c(N)ncnc3n2C)C1 (stereo not drawn)
6.00 to 6.60

Look up pIC50: C=CC(=O)N1CCC(n2cc(-c3c(-c4ccc(Oc5cccc(C)n5)c(OC)c4)c4c(N)ncnc4n3C)cn2)CC1
> 7.00

Look up pIC50: C=C(C)C(=O)Nc1ccc(-c2c(-c3ccc(C(=O)NC4CCCC4)cc3)c3c(N)ncnc3n2C)cc1
> 7.00

Look up pIC50: C=CC(=O)N1CCC(c2c(-c3ccc(OC4CCC4)cc3)c3c(N)ncnc3n2C)C1 (stereo not drawn)
> 7.00

Look up pIC50: C=C(C)C(=O)Nc1ccc(-c2c(-c3cc(C)c(Oc4ccccn4)c(O)c3)c3c(N)ncnc3n2C)cc1
6.00 to 6.60
